test system: SF-295 CNS; test: NCI tumour cell line growth inhibition, 48 h
Would you kindly list TGI for each of these compounds?

# input Print SF-295 CNS TGI for `c1ccc(-c2nc(N3CCCNCC3)c3nc(-c4ccccc4)oc3n2)cc1` .
# output 3.25 µM

# input Print SF-295 CNS TGI for CC1=NNC(=O)C1C1CC(c2c[nH]c3ccccc23)=NN=C1Cl (centres undefined) .
# output > 100 µM

# input Print SF-295 CNS TGI for O=C1C(C(O)(C(F)(F)F)C(F)(F)F)CCC1C(O)(C(F)(F)F)C(F)(F)F (centres undefined) .
# output 21 µM

# input Print SF-295 CNS TGI for `CCOC(=O)NC(Nc1c(F)c(F)c(F)c(F)c1F)(C(F)(F)F)C(F)(F)F` .
# output > 100 µM

# input Print SF-295 CNS TGI for `COc1ccccc1NC(=O)/C(=C/c1ccccc1)C(C)=O` .
# output 71 µM

# input Print SF-295 CNS TGI for `CCN(CC)c1ccc(/C=C/C2=[N+](C)c3ccccc3C2(C)C)c(C)c1` .
# output 1.49 µM

# input Print SF-295 CNS TGI for `COc1ccc(C(=O)c2nc3ccccc3n2CC(=O)c2ccc(Cl)cc2)cc1` .
# output > 100 µM

# input Print SF-295 CNS TGI for c1ccc2c(c1)CCCC/C2=N/OCC1CO1 (centres undefined) .
# output > 100 µM

# input Print SF-295 CNS TGI for CON(C)C(=O)C1CCCO1 (centres undefined) .
# output > 100 µM

# input Print SF-295 CNS TGI for `CCCCCCCCCCCCCC[n+]1cccc(C(N)=O)c1` .
# output 4.23 µM

# input Print SF-295 CNS TGI for `Cc1cccc(N(CC(=O)O)S(=O)(=O)c2ccccc2)c1` .
# output > 100 µM

# input Print SF-295 CNS TGI for `Cc1cc(C)n(C2=NS(=O)(=O)c3ccccc3N2C)n1` .
# output > 100 µM

# input Print SF-295 CNS TGI for O=C(c1cccs1)C1NO[N+]([O-])=C1c1cccs1 (centres undefined) .
# output 12.4 µM

# input Print SF-295 CNS TGI for `CC(=O)n1c(=O)c2cc3c(=O)n(-c4cccc(C#N)c4)c(=O)c3cc2c1=O` .
# output > 100 µM

# input Print SF-295 CNS TGI for O=C(OCC1OC(n2nc(Cn3nnc(-c4cccnc4)n3)n(-c3cccc4ccccc34)c2=S)C(OC(=O)c2ccccc2)C1OC(=O)c1ccccc1)c1ccccc1 (centres undefined) .
# output > 100 µM

# input Print SF-295 CNS TGI for O=C1CS(=O)(=O)C(c2cccc(Oc3ccccc3)c2)N1c1cc(Cl)ccc1Cl (centres undefined) .
# output 62.1 µM

# input Print SF-295 CNS TGI for `O=C1C=CC(=O)C(CNc2ccc(C(=O)OCc3ccccc3)cc2)=C1` .
# output 34.5 µM

# input Print SF-295 CNS TGI for `Clc1nncc2sc(-c3ccccc3)nc12` .
# output > 77.4 µM

# input Print SF-295 CNS TGI for `COc1nc2c(N3CCCC3)nc(N3CCNCC3)nc2nc1NCc1ccccc1` .
# output 3.35 µM

# input Print SF-295 CNS TGI for O=C(Cl)C1=C(c2ccccc2)C1c1ccccc1 (centres undefined) .
# output > 100 µM

# input Print SF-295 CNS TGI for `c1ccc([P+](CCCCCCCC[P+](c2ccccc2)(c2ccccc2)c2ccccc2)(c2ccccc2)c2ccccc2)cc1` .
# output > 72.9 µM

# input Print SF-295 CNS TGI for COc1cc(C2c3cc4c(cc3[C@@H](Nc3ccc5c(c3)OCO5)C3COC(=O)[C@H]23)OCO4)cc(OC)c1O (some centres undefined) .
# output 5.3 µM

# input Print SF-295 CNS TGI for `COc1ccc(-c2c(C3=NCCCN3)nnn2-c2ccc([N+](=O)[O-])cc2)cc1` .
# output > 100 µM

# input Print SF-295 CNS TGI for C=C1C(=O)C23C(O)CC4C5(C)CCCC4(C(O)OC5)C2C(OC(C)=O)CC1C3O (centres undefined) .
# output 41.4 µM

# input Print SF-295 CNS TGI for `CCOC(=O)c1c(SCCN2CCOCC2)n(-c2ccccc2)c(=S)n(-c2ccccc2)c1=O` .
# output 61.2 µM

# input Print SF-295 CNS TGI for CCOC(=O)C1=CC(C)(C(=O)OCC)Nc2c(nc(N)[nH]c2=O)N1 (centres undefined) .
# output > 10 µM

# input Print SF-295 CNS TGI for Cc1cccc(C)c1N1C(=O)C(=O)C(c2nc3ccccc3s2)/C(=N/NC(=O)NN)C1=O (centres undefined) .
# output > 100 µM

# input Print SF-295 CNS TGI for O=C(NN1C(=O)CSC1c1cccc(F)c1)c1ccncc1 (centres undefined) .
# output > 100 µM

# input Print SF-295 CNS TGI for `CCN1C(=O)C(=C/C=C/c2ccc(N(CC)CC)cc2)C(=O)N(CC)C1=S` .
# output > 100 µM

# input Print SF-295 CNS TGI for CSc1nc2c(ncn2C2OC(CO)C(O)C(O)C2O)c(=O)[nH]1 (centres undefined) .
# output > 100 µM

# input Print SF-295 CNS TGI for `O=S1(=O)C[C@@H](NCc2ccccc2)[C@H](NCc2ccccc2)C1` .
# output > 100 µM

# input Print SF-295 CNS TGI for `C[C@H]1OC(=O)[C@@H]2N=NN(Cc3ccccc3)[C@H]12` .
# output > 100 µM

# input Print SF-295 CNS TGI for CCOC(=O)C1CCC(=O)N1C(=O)c1ccccc1Cl (centres undefined) .
# output > 100 µM

# input Print SF-295 CNS TGI for `CC(=Nc1ccc(S(N)(=O)=O)cc1)c1c(O)[nH]c2ccccc12` .
# output > 25 µM
